# measured.on: Cytochrome P450 2C9 (Homo sapiens) (UniProt P11712)
# Sequence (P11712 whole entry, looked up): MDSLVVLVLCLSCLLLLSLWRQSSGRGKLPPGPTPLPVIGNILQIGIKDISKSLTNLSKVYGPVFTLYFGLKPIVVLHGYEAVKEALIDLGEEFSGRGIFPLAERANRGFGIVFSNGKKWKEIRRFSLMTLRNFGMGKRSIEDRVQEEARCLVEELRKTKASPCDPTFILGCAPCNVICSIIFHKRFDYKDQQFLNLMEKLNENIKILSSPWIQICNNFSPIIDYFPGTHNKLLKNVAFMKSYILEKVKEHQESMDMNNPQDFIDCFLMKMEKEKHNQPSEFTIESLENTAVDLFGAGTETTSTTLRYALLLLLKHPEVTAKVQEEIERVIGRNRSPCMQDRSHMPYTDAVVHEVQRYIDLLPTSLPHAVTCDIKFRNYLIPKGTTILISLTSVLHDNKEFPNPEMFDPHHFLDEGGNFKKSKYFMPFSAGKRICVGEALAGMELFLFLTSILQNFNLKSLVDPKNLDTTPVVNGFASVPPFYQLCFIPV
# test.protocol: Cytochrome P450 Family 2 Subfamily C Member 9 (CYP2C9) small molecule antagonists: luciferase reporter qHTS assay (AID 1671198); further: on the % scale 0 is the no-effect control and ±100 the full control effect; nearly all actives have a fitted effect of over 50% in size
# test.parameters: P450-Glo CYP2C9 enzyme assay, luciferin luminescence; series mostly up to 115 µM
Records with an inconclusive call do not appear. Calls of active or inactive are those of the source. The call rests on the fitted dose curve; in most records, active means well fitted inhibition curve with a large enough effect in the repeat runs; inconclusive means weak or mixed curves; inactive means no such curve, though single readings can be large or run the other way.
result.type: activity change, negative = inhibition

Consider the following illustrative entries.
Nc1c(NC/C=C\COc2cc(CN3CCCCC3)ccn2)c(=O)c1=O
-15.9% [at 23.6 µM] (inactive)
C=CCCCCCCCCCCC
-1.77% [at 10.5 µM] (inactive)
Nc1ccc(/C=C/c2ccc(N)cc2S(=O)(=O)O)c(S(=O)(=O)O)c1
3.26% [at 0.435 µM] (inactive)
CCCCCCCCCCCCCCCCI
-1.09% [at 23.6 µM] (inactive)

Query: Give recorded activity change, negative = inhibition. `BrC/C=C/CBr`
Response: -9.58% [at 23.6 µM] (inactive)

###

# measured.on: Luciferin 4-monooxygenase (Photinus pyralis) (UniProt P08659)
# Sequence (P08659 whole entry, looked up): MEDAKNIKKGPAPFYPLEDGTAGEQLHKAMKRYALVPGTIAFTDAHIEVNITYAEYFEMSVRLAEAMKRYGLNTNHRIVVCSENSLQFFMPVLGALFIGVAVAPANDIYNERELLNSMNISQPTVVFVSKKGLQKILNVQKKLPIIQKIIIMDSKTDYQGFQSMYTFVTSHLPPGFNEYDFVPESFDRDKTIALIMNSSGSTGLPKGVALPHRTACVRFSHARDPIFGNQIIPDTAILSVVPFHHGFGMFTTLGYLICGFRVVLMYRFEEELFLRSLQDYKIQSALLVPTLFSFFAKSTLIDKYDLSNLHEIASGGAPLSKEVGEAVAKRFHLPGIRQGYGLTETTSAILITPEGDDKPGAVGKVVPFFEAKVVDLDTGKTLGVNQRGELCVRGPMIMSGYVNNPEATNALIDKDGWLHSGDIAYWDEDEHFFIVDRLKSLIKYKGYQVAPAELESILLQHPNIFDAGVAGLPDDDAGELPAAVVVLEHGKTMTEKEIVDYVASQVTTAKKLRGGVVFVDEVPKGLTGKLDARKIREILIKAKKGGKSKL
# test.protocol: qHTS assay to identify small molecule inhibitors of firefly luciferase (AID 1224835); further: nearly all actives have a fitted effect of over 25% in size
# test.parameters: purified P. pyralis luciferase, luminescence inhibition; series mostly up to 115 µM
# Excerpt: U.S. Tox21 Program National Center for Advancing Translational Sciences [NCATS] NIH Chemical Genomics Center [NCGC] U.S. Environmental Protection Agency [EPA] National Institutes of Environmental Health Sciences [NIEHS] National Toxicology Program [NTP] U.S. Food and Drug Administration [FDA] Tox21 Assay Overview: Firefly (Photinus pyralis) luciferase is one of the most commonly used transcriptional reporters. […]
Inconclusive results are not listed. Active and inactive are the calls of the source. Calls come from the whole dose curve; as a rule, active = well fitted inhibition curve with a large enough effect in the repeat runs; inconclusive = weak or mixed curves; inactive = flat fitted curve, though single readings scatter.
Returns: one label drawn from active, inactive

Some entries whose results are on file:
CC(C)COC(=O)COc1ccc(Cl)cc1Cl
active
CCOC(=O)C(C)(C)C
inactive
CCCCOC(=O)C(C)OC(=O)CCC (configuration not stated)
inactive
CC(C)CCCCCCOC(=O)C1CCCCC1C(=O)OCCCCCCC(C)C (configuration not stated)
inactive
CCCCC[Si](OCC)(OCC)OCC
inactive

Query: I would be grateful if you could indicate the recorded call for `O=C(Oc1ccccc1C(=O)O)c1ccccc1O` .
Response: inactive

Query: I would be grateful if you could indicate the recorded call for `Oc1ccccc1Cc1ccccc1O` .
Response: inactive

Query: I would be grateful if you could indicate the recorded call for `COc1cc2c3cc1Oc1cc(ccc1O)C[C@@H]1c4c(cc(OC)c(O)c4Oc4ccc(cc4)C[C@@H]3N(C)CC2)CC[N+]1(C)C` .
Response: inactive

Query: I would be grateful if you could indicate the recorded call for `CC(=O)OCC(=O)[C@@]1(O)[C@H](OC(C)=O)C[C@H]2[C@@H]3CCC4=CC(=O)C=C[C@]4(C)[C@@]3(F)[C@@H](O)C[C@@]21C` .
Response: inactive

Query: I would be grateful if you could indicate the recorded call for `CCCCCCCCOC(C)=O` .
Response: inactive

Query: I would be grateful if you could indicate the recorded call for `CCOC(=O)OCC/C(SC(=O)OCC)=C(\C)N(C=O)Cc1cnc(C)nc1N` .
Response: inactive

Query: I would be grateful if you could indicate the recorded call for `N#CCCOCCOCCC#N` .
Response: inactive

Origin of values: PubChem BioAssay (Tox21)
